TEST SYSTEM: Follistatin-related protein 3 (Homo sapiens) (UniProt O95633)
Sequence (O95633 whole entry, looked up): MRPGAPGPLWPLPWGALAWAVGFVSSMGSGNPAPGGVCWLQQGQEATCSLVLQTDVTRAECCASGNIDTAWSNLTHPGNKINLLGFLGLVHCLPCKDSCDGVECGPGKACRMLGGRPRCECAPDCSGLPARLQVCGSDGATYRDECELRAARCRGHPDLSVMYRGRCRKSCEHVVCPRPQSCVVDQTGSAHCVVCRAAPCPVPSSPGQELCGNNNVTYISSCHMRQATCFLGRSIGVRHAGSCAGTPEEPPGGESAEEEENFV
EXPERIMENTAL DETAILS: FSTL3 binders on small-molecule microarrays, primary screen, biochemical, small-molecule microarray, 635 nm fluorescence (AID 1105);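 further: score merges emission near 667 nm and signal to noise per printed spot across three slides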
CONDITION: FSTL3 binding, higher = more signal
What composite z-score was measured for each of the following?
One number for each entry.

For orientation, consider the following solved cases.
[
  {
    "MOL": "COCCOC(=O)N1C(=O)[C@@]2(c3cc(C#CCNC(N)=O)ccc31)[C@H](c1ccccc1OCCO)N1[C@H](c3ccccc3)[C@H](c3ccccc3)OC(=O)[C@H]1[C@@H]2C(=O)N1CCN(c2ncccn2)CC1",
    "composite z-score": 0.623
  },
  {
    "MOL": "CCCC[C@@H](O)C1=C(C)C[C@H]2C(=O)N(Cc3ccccc3)C(=O)[C@H]2[C@H]1CO",
    "composite z-score": 0.449
  },
  {
    "MOL": "C#C[C@@H](CC)O[Si](C#Cc1ccc(Oc2ccccc2)cc1)(C(C)C)C(C)C",
    "composite z-score": 0.773
  }
]

Here is the next item to consider.
Dear colleague, I am looking for the recorded composite z-score of the following compound: `O=C1[C@H]2[C@H]3[C@H](O)[C@H](O)CC(=NOCc4ccccc4)[C@@H]3CC[C@H]2C(=O)N1C1CCCCC1`
-0.0832

====

EXPERIMENTAL DETAILS: fission yeast growth modulation, primary screen, strain 972, OD600, 24 h, no modulator (AID 1090);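 further: basal condition with compound alone and no growth modifier present; test concentration not given here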
CONDITION: S. pombe 972 growth, higher = more signal, called active from +8 up or from −8 down
Please go through the items and note down their z-score.
Numbers only.

Record excerpt, results attached:
[
  {
    "COMPOUND": "COCC(=C=CC[C@@H](O)c1ccccc1OCCO)CCO",
    "VALUE MEASURED": 0.0008
  },
  {
    "COMPOUND": "CO[C@@H]1COC(=O)CC=C[C@@H](C)[C@H](OC)COC(=O)[C@H](COCc2ccccc2)NC(=O)CC=C[C@H]1C",
    "VALUE MEASURED": -0.556
  },
  {
    "COMPOUND": "C=CC[C@]1(C(=O)NCc2ccccc2)N=C(c2ccc(OCCCO)cc2)O[C@H]1c1ccccc1",
    "VALUE MEASURED": -0.46
  },
  {
    "COMPOUND": "CC(CCN1CCCCc2nc(C)c(C)cc21)=NOC(C)CN1CCCCc2nc(C)c(C)cc21 (stereo unspecified)",
    "VALUE MEASURED": -1.49
  },
  {
    "COMPOUND": "COC(=O)[C@]1(CO)N=C(c2ccc(OCCCO)cc2)O[C@@H]1c1ccccc1N=[N+]=[N-]",
    "VALUE MEASURED": -0.683
  }
]

Provide z-score values for the following items, in order.
1. CC(CCN1CCc2nc(-c3ccccc3)c(-c3ccccc3)cc2C1)=NOC(C)CN1CCCCc2nc(C)c(C)cc21 (stereo unspecified)
2. CCCCCN1CC=CC23O[C@@H]4C=CCOC(=O)[C@@H]4[C@H]2C(=O)N(CCCCCCO)[C@@H]3C1=O (stereo partly specified)

1: -3.01; 2: -0.183

Please look at the items below and tell me z-score for each one, in order.
1. CC(C)N1CC=CC23O[C@@H]4C=CCCOC(=O)C4[C@H]2C(=O)N(CCCCCCO)[C@@H]3C1=O (stereo partly specified)
2. CN(C)C(=O)[C@@]1(Cc2ccccc2)N=C(c2ccc(OCCCO)cc2)O[C@H]1c1ccccc1CN=[N+]=[N-]
3. CC(CCN1CCc2nc(-c3ccccc3)c(-c3ccccc3)cc2C1)=NO[C@H](C)c1cn([C@@H]2COC[C@H]2O)nn1
4. CC(C)NC(=O)[C@@H]1c2ccccc2C(=O)N(CC23CC4CC(CC(C4)C2)C3)[C@H]1c1ccc(CO)cc1

0.159
-0.31
-1.35
-1.81

Need z-score for each of these compounds.
1. CO[C@H]1COC(=O)CC=C[C@H](C)[C@@H](NS(=O)(=O)c2ccc(C)cc2)COC(=O)CC=C[C@@H]1C
2. COCCOC(=O)N1C(=O)[C@@]2(c3cc(C#Cc4ccc(OC)cc4)ccc31)[C@H](c1ccc(O)cc1)N1[C@H](c3ccccc3)[C@H](c3ccccc3)OC(=O)[C@H]1[C@@H]2C(N)=O
3. CC(C)c1ccc(NN2C(C(O)c3ccc4c(c3)OCO4)C=CC3C(=O)N(c4ccccc4)C(=O)C32)cc1 (stereo unspecified)
4. CC(C)OC(=O)C=C1C[C@@H](c2ccc(C#N)cc2)O[C@@H](c2ccc(C#N)cc2)O1
5. O=C1[C@H]2[C@H]3[C@H](O)[C@H](O)CC(=NO[C@@H]4O[C@H](CO)[C@@H](O)[C@H](O)[C@H]4O)[C@H]3CC[C@H]2C(=O)N1Cc1ccc2c(c1)OCO2

1. -2.23
2. -0.118
3. 0.0855
4. -2.93
5. 0.918
